# Test system: SC27B
# PROTOCOL SUMMARY: qHTS profiling for inhibitors of Plasmodium falciparum proliferation (AID 504749); note: nearly all actives have a fitted effect of over 60% in size
# ASSAY CONDITIONS: P. falciparum in erythrocytes, SYBR Green DNA, 72 h; series mostly up to 12.8 µM
# Protocol: NIH National Institute of Allergy and Infectious Diseases [NIAID] NIH Chemical Genomics Center [NCGC] […] Because mature erythrocytes lack DNA, only Plasmodium-derived DNA is detected. NCGC Assay Protocol Summary: The SYBR Green viability assay was adapted from a method described previously (Plouffe et al., 2008). […] The following morning, fluorescence intensity at 485(14) nm excitation and 535(25) nm emission wavelengths was measured on an EnVision (Perkin Elmer) plate reader. […]
Results filed as inconclusive are left out. Active and inactive are the calls of the source. Calls come from the whole dose curve; as a rule, active = well fitted inhibition curve with a large enough effect; inconclusive = small, poorly fitted or top-dose-only effect; inactive = flat fitted curve, though single readings scatter.
A correct response names exactly one class from active, inactive

*Q* I would be grateful if you could indicate the recorded call for CN(C)[C@H]1C(=O)C(C(=O)NCN2CCCC2)=C(O)[C@]2(O)C(=O)C3=C(O)c4c(O)cccc4[C@@](C)(O)[C@H]3C[C@@H]12 .
*A* inactive

*Q* I would be grateful if you could indicate the recorded call for CC(=O)Nc1c(I)c(C(=O)N[C@H]2[C@@H](O)[C@H](O)[C@H](CO)O[C@@H]2O)c(I)c(N(C)C(C)=O)c1I .
*A* inactive

*Q* I would be grateful if you could indicate the recorded call for C/C=C\C(=O)N(CC)c1ccccc1C .
*A* inactive

*Q* I would be grateful if you could indicate the recorded call for CC(C)(O/N=C(\C(=O)N[C@@H]1C(=O)N2C(C(=O)[O-])=C(C[n+]3ccccc3)CS[C@@H]12)c1csc(N)n1)C(=O)O .
*A* inactive

*Q* I would be grateful if you could indicate the recorded call for O=c1[nH]c(=O)n([C@@H]2C[C@H](O)[C@H](CO)O2)cc1I .
*A* inactive

*Q* I would be grateful if you could indicate the recorded call for C[N+]1(C)CCC[C@@H](OC(=O)C(O)(c2ccccc2)c2ccccc2)C1 .
*A* inactive

*Q* I would be grateful if you could indicate the recorded call for CC[C@]1(C)CC(=O)NC1=O .
*A* inactive

*Q* I would be grateful if you could indicate the recorded call for CC(C)(C)NC[C@H](O)c1cc(O)cc(O)c1 .
*A* inactive

*Q* I would be grateful if you could indicate the recorded call for C[C@@H]1CCC[C@H](C)N1NC(=O)c1ccc(Cl)c(S(N)(=O)=O)c1 .
*A* inactive

*Q* I would be grateful if you could indicate the recorded call for CN1CCCC[C@@H]1CCN1c2ccccc2Sc2ccc(S(C)=O)cc21 (some centres undefined) .
*A* inactive

*Q* I would be grateful if you could indicate the recorded call for CO[C@]1(NC(=O)CSCC#N)C(=O)N2C(C(=O)O)=C(CSc3nnnn3C)CS[C@H]21 .
*A* inactive

*Q* I would be grateful if you could indicate the recorded call for O=c1[nH]cnc2c1ncn2C1OC(CO)C(O)C1O (centres undefined) .
*A* inactive

*Q* I would be grateful if you could indicate the recorded call for CN(C)[C@@H]1C(=O)C(C(N)=O)=C(O)[C@]2(O)C(=O)C3=C(O)c4c(O)ccc(Cl)c4[C@H](O)[C@H]3C[C@@H]12 .
*A* inactive

*Q* I would be grateful if you could indicate the recorded call for C[n+]1ccccc1/C=N\O .
*A* inactive

*Q* I would be grateful if you could indicate the recorded call for CCCN[C@@H](C)C(=O)Nc1c(C)csc1C(=O)OC .
*A* inactive

*Q* I would be grateful if you could indicate the recorded call for Cc1cc(/C=C\c2ccc3cc(N(C)C)ccc3[n+]2C)c(C)n1-c1ccccc1 .
*A* active

*Q* I would be grateful if you could indicate the recorded call for CC(=O)N(CC(O)CN(C(C)=O)c1c(I)c(C(=O)NC[C@@H](O)CO)c(I)c(C(=O)NC[C@@H](O)CO)c1I)c1c(I)c(C(=O)NC[C@@H](O)CO)c(I)c(C(=O)NC[C@@H](O)CO)c1I .
*A* inactive

*Q* I would be grateful if you could indicate the recorded call for COCCc1ccc(OC[C@H](O)CNC(C)C)cc1 .
*A* inactive

*Q* I would be grateful if you could indicate the recorded call for COc1c(O)cc2c(c1O)[C@@H]1O[C@@H](CO)[C@@H](O)[C@@H](O)[C@@H]1OC2=O .
*A* inactive

*Q* I would be grateful if you could indicate the recorded call for CN1[C@@H]2CC[C@H]1CC(OC(=O)[C@@H](O)c1ccccc1)C2 (some centres undefined) .
*A* inactive

*Q* I would be grateful if you could indicate the recorded call for CC(=O)OCC1=C(C(=O)O)N2C(=O)[C@@H](NC(=O)CSc3ccncc3)[C@@H]2SC1 .
*A* inactive

*Q* I would be grateful if you could indicate the recorded call for N[C@@H](CO)C(=O)NNCc1ccc(O)c(O)c1O .
*A* inactive

*Q* I would be grateful if you could indicate the recorded call for CCN(CC)CC#CCOC(=O)[C@@](O)(c1ccccc1)C1CCCCC1 .
*A* inactive

*Q* I would be grateful if you could indicate the recorded call for CCN1C(=O)N[C@@H](c2ccccc2)C1=O .
*A* inactive

*Q* I would be grateful if you could indicate the recorded call for CC[C@@]12CCCN3CCc4c(n(c5ccccc45)C(=O)C1)[C@H]32 .
*A* inactive

*Q* I would be grateful if you could indicate the recorded call for CC(=O)O[C@@H](C)C[N+](C)(C)C .
*A* inactive

*Q* I would be grateful if you could indicate the recorded call for CCCN[C@@H](C)C(=O)Nc1ccccc1C .
*A* inactive

*Q* I would be grateful if you could indicate the recorded call for C[C@@H](C(=O)O)c1ccc(C(=O)c2cccs2)cc1 .
*A* inactive

*Q* I would be grateful if you could indicate the recorded call for O=C(c1ccccc1)c1ccc2n1CC[C@H]2C(=O)O .
*A* inactive

The origin of these recorded values is PubChem BioAssay (NCATS).
